- STUDY_SYSTEM: human IRAK4 (Homo sapiens)
- Sequence (Q9NWZ3 1-460): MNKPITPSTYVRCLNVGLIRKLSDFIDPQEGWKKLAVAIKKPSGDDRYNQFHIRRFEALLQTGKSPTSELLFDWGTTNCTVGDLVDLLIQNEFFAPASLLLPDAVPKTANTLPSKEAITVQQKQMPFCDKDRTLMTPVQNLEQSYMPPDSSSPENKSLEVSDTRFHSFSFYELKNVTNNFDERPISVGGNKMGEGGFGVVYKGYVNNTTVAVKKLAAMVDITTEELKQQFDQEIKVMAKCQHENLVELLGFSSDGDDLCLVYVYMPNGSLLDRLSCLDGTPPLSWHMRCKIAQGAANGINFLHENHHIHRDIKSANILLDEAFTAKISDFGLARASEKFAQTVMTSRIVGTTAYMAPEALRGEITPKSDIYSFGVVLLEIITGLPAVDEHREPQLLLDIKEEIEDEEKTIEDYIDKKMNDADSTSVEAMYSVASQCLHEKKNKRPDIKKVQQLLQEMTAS
ASSAY_READOUT: IC50 (pM)

input: Endpoint output: IC50 of Cc1nccc(-c2nc(C(=O)Nc3cn4cc(C(C)(C)O)nc4cc3-c3ccccc3)co2)c1F . Value?
output: 100

input: Another compound to look at: Cc1cc(-c2nc(C(=O)Nc3cn4cc(CCC(C)(C)O)nc4cc3N3CCC4(CCOC4)CC3)co2)ccn1
output: 400

input: Would you mind doing CC(C)(O)CCc1cn2cc(NC(=O)c3coc(-c4ccnc(N)c4)n3)c(N3CCCCC3)cc2n1 as well?
output: 1800

input: Next compound: Cc1cc(-c2nc(C(=O)Nc3cn4cc(C(C)(C)O)nc4cc3-c3ccccn3)co2)ccn1
output: 300

input: Try the compound Cc1cc(-c2nc(C(=O)Nc3cn4cc(CCN(C)C)nc4cc3-c3ccccc3)co2)ccn1
output: 400

input: Same lookup for Cc1nccc(-c2nc(C(=O)Nc3cn4cc(C(C)(C)O)nc4cc3-c3ccccc3)co2)c1Cl , please.
output: 400

input: Now consider Cc1cc(-c2nc(C(=O)Nc3cn4cc(C(C)(C)O)nc4cc3N3CCC(CO)CC3)co2)ccn1 .
output: 2100

(P) CN(C)c1cc(-c2nc(C(=O)Nc3cn4cc(CCC(C)(C)O)nc4cc3N3CCCCC3)co2)ccn1
(Q) Cc1cc(-c2nc(C(=O)Nc3cn4cc(CC(N)=O)nc4cc3-c3ccccc3)co2)ccn1
(R) CC(C)(O)CCc1cn2cc(NC(=O)c3coc(-c4ccnc5[nH]ccc45)n3)c(N3CCCCC3)cc2n1
(S) Cc1cc(-c2nc(C(=O)Nc3cn4cc(CCS(C)(=O)=O)nc4cc3-c3ccccc3)co2)ccn1
(T) CC(=O)Nc1cc(-c2nc(C(=O)Nc3cn4cc(CCC(C)(C)O)nc4cc3N3CCCCC3)co2)ccn1
input: Order by IC50, ascending. Answer format: the labels, ordered as requested.
output: Q, S, R, T, P
